System: NCI-H226 lung
procedure-details: NCI-60 one-dose screen, 48 h
condition-context: 10 µM unless noted
This is part of a sample that, as a whole, favours compounds with a hit. Of some 83,000 tested, about 20% had one in any assay. Activity calls are given as the source filed them. Rule for the calls: active = growth percent below 10; inactive = the rest.
Outcome codes: class 1 (active), class 0 (inactive)

[
  {
    "molecule": "CC(C)(C)n1cc(-c2ccnc(NCCNS(=O)(=O)c3cccc4ccccc34)c2)c(-c2cccc(F)c2)n1",
    "discrete-label": "class 1"
  },
  {
    "molecule": "O=C1C(Cl)=C(Oc2ccccc2)C(=O)c2ccccc21",
    "discrete-label": "class 0"
  },
  {
    "molecule": "CS(=O)(=O)Nc1cc(-c2ccc3ncnc(Nc4c(Cl)ccc5c4OCO5)c3c2)cnc1Cl",
    "discrete-label": "class 0"
  },
  {
    "molecule": "CCOc1ccc(NC(=O)CSc2oc(-c3ccccc3)nc2S(=O)(=O)c2ccc(F)cc2)cc1",
    "discrete-label": "class 0"
  },
  {
    "molecule": "Cc1cc2c(O)c(-c3cc(Cl)ccc3Cl)c3sc(=O)oc3c2cc1C",
    "discrete-label": "class 0"
  },
  {
    "molecule": "CCOC(=O)c1cc(C(=O)c2cc(OC)c(OC)c(OC)c2)n2ccc(-c3ccncc3)cc12",
    "discrete-label": "class 0"
  },
  {
    "molecule": "CN(C)CCCn1c2c(c3ncccc3c1=O)C(=O)c1ccccc1-2",
    "discrete-label": "class 0"
  },
  {
    "molecule": "O=C(/C=C/c1ccccc1)c1cccc(OCCCOc2cccc(C(=O)/C=C/c3ccccc3)c2)c1",
    "discrete-label": "class 0"
  },
  {
    "molecule": "Cc1cccc(Cl)c1NC(=O)c1ccc2nc(NC(=O)NCCN(C)C)sc2c1",
    "discrete-label": "class 0"
  },
  {
    "molecule": "O=S(=O)(Nc1ccccc1)c1ccc(C2CC3(Cl)C(Cl)=C(Cl)C2(Cl)C3(Cl)Cl)cc1 (stereo unspecified)",
    "discrete-label": "class 0"
  },
  {
    "molecule": "O=C(Nc1cccc([N+](=O)[O-])c1)c1cc2ccccc2cc1O",
    "discrete-label": "class 1"
  },
  {
    "molecule": "CCn1c(=S)[nH]c2c(=O)n(C)c(=O)n(C)c21",
    "discrete-label": "class 0"
  },
  {
    "molecule": "C=CCn1cc(-c2nc3ccccc3s2)c2cc(-c3ccc4c5c(cccc35)C(=O)N(N)C4=O)ccc21",
    "discrete-label": "class 0"
  },
  {
    "molecule": "O=Nc1c(-c2c(O)[nH]c3ncccc23)[nH]c2ccccc12",
    "discrete-label": "class 0"
  },
  {
    "molecule": "CCCCCCCCn1ccc2cc(NC(=O)Cn3cc(CN4CCCCC4)nn3)ccc21",
    "discrete-label": "class 0"
  },
  {
    "molecule": "CC(C)N1CCN(Cc2ccc3c(NNC(=O)c4ccccc4)nc4cc(F)ccc4n23)CC1",
    "discrete-label": "class 0"
  },
  {
    "molecule": "COc1cccc(NC(=O)Cn2cc(CN3CCN(c4ccnc5cc(Cl)ccc45)CC3)nn2)c1",
    "discrete-label": "class 0"
  },
  {
    "molecule": "O=C1c2c(c3c4ccc(Br)cc4oc3c3[nH]c4ccccc4c23)C(=O)N1O",
    "discrete-label": "class 0"
  },
  {
    "molecule": "N#Cc1nn(-c2cc(=O)[nH]c3ccc(Cl)cc23)c(N)c1C#N",
    "discrete-label": "class 0"
  },
  {
    "molecule": "COc1ccc2nc3ccc(OC)cc3c(SCCCN)c2c1",
    "discrete-label": "class 0"
  },
  {
    "molecule": "CCOC(=O)c1cc2c(=O)oc3ccccc3c2oc1=O",
    "discrete-label": "class 0"
  }
]
